- procedure details: Metabolic stability in liver microsomes
- Format: in vitro ADME
- recorded conditions: SD, rat, read-out: liver intrinsic clearance (CLint)
metric: CLint scaled at 1 µM

structure smiles string	recorded result
CN(Cc1nc2c(N3CCOCC3)nc(-c3ccc(N)cc3)nc2n1C)c1ncc(C(=O)NO)cn1.CS(=O)(=O)O	< 13.5 mL/min/kg

###

- procedure details: Metabolite profiling in plasma, bile, urine, feces
- Type: in vivo, SD rats
- recorded conditions: males, 0 to 168 hours
metric: amount in urine, % of administered dose

structure smiles string	metric	recorded result
CC(=O)Nc1ccc(-c2nc(N3CCOCC3)c3nc(CN(C)c4ncc(C(=O)NO)cn4)n(C)c3n2)cc1	amount in urine, % of administered dose	1.02% to 1.92
CN(Cc1nc2c(N3CCOCC3)nc(-c3ccc(N)cc3)nc2n1C)c1ncc(C(=O)NO)cn1.CS(=O)(=O)O	amount in urine, % of administered dose	0.66%
CC(=O)Nc1ccc(-c2nc(N3CCOCC3)c3nc(CN(C)c4ncc(C(N)=O)cn4)n(C)c3n2)cc1	amount in urine, % of administered dose	0.88% to 3.01
CN(Cc1nc2c(N3CCOCC3)nc(-c3ccc(N)cc3)nc2n1C)c1ncc(C(N)=O)cn1	amount in urine, % of administered dose	1.02% to 1.92
